- test.target: Microsomal triglyceride transfer protein large subunit (Homo sapiens, UniProt P55157)
- Sequence (P55157 whole entry): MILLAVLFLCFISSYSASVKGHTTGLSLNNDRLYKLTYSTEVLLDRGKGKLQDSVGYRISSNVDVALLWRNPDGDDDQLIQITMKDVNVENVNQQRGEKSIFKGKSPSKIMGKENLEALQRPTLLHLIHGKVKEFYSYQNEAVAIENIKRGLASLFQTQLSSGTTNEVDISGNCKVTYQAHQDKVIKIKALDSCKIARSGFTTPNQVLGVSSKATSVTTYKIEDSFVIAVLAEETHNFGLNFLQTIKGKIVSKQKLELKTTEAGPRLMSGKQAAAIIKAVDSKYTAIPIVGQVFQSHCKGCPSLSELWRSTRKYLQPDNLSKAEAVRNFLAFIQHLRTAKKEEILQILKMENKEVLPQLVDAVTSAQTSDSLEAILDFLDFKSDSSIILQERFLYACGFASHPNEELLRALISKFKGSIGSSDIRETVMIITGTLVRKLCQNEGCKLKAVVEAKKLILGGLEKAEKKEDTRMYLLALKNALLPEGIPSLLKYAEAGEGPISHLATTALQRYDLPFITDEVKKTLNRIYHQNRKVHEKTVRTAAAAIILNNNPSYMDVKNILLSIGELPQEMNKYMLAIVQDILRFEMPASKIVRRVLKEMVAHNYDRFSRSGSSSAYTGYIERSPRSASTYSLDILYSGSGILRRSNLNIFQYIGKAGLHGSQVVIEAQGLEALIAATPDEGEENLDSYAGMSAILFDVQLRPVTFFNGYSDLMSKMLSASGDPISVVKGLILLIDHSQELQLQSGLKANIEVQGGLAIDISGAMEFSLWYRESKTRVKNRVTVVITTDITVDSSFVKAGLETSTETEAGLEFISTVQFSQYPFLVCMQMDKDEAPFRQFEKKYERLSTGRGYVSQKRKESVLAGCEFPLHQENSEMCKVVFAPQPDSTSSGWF
- test.summary: In vitro inhibition of human microsomal triglyceride transfer protein in HepG2 cells using apoB secretion assay
- Assay type: cell-based
pIC50: −log10 of the molar value.
endpoint: pIC50

Past entries and their recorded results:
Cc1ccc2c(nc(C)n2CCCCC2(C(=O)NCC(F)(F)F)c3ccccc3-c3ccccc32)c1NC(=O)c1ccccc1-c1ccc(C(F)(F)F)cc1 10.52
CC(C)c1nc2c(NC(=O)c3ccccc3-c3ccc(C(F)(F)F)cc3)cccc2n1CCCCC1(C(=O)NCC(F)(F)F)c2ccccc2-c2ccccc21 10.22
Cc1ccc2c(ncn2CCCCC2(C(=O)NCC(F)(F)F)c3ccccc3-c3ccccc32)c1NC(=O)c1ccccc1-c1ccc(C(F)(F)F)cc1 10.70

1. Cc1nc2c(NC(=O)c3ccccc3-c3ccc(C(F)(F)F)cc3)cccc2n1CCCCC1(C(=O)NCC(F)(F)F)c2ccccc2-c2ccccc21
2. O=C(Nc1cccc2c1ncn2CCCCC1(C(=O)NCC(F)(F)F)c2ccccc2-c2ccccc21)c1ccccc1-c1ccc(C(F)(F)F)cc1
Compare the recorded pIC50 of 1 and 2 ; state which is larger. Kindly give the label for the entry you pick.
1
